Hey, just so you know, these numbers are from PubChem BioAssay.

experiment: inhibitors of mutant huntingtin aggregation, primary screen, imaging, exon1htt(103Q)mCFP cells, high-content imaging (AID 483); conditions: exon1htt(103Q)mCFP cell line, aggregate imaging, at 2 µM; active compounds read high;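 note: compound exposure lasted 3 days before fixation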
# inhibition of aggregation annotations
Your answer is read as %, so omit the unit and give the number.

The examples below pair each entry with its known result.
CN(CC(=O)O)S(=O)(=O)c1cc(Cl)ccc1Cl : -0.4
COc1cccc(-c2nc3n(n2)C(c2cccs2)C(C(=O)Nc2cccnc2)=C(C)N3)c1 (centres undefined) : 30.4
CN(C)CCN1C(=O)C(O)=C(C(=O)c2cc3ccccc3o2)C1c1ccc(N(C)C)cc1 (centres undefined) : 11.6
Cc1cc(NC(=O)Cc2cn3ccsc3n2)n(-c2ccccc2)n1 : -16.8
CCC(C)Nc1nc2c(c(=O)n(C)c(=O)n2C)n1Cc1ccc(F)cc1 (centres undefined) : 9.6
COc1ccccc1-c1nnc(NC(=O)c2ccc(S(=O)(=O)N(C)Cc3ccccc3)cc2)o1 : 9.9
Cn1c(=O)c2[nH]c(NCC3CCCO3)nc2n(-c2ccccc2)c1=O (centres undefined) : -11.4
CCN(CC)C(=O)CSc1nnc(-c2cc(OC)cc(OC)c2)o1 : 10.3
Cc1c(NC(=O)C2CCCCN2S(=O)(=O)c2ccc(Cl)cc2)c(=O)n(-c2ccccc2)n1C (centres undefined) : -14.5
CC(C)C(NC(=O)c1ccccc1NC(=O)c1ccco1)C(=O)O (centres undefined) : -3.4

Bench note: what inhibition of aggregation did COC(=O)Nc1nnc(CCc2ccccc2)s1 show?
2.7

Bench note: what inhibition of aggregation did O=C(CSc1nnc2ccccn12)NCCN1C(=O)CSC1=O show?
-2.4

Bench note: what inhibition of aggregation did Cc1ccc(CCNC(=O)C2CCCN2S(=O)(=O)c2ccc3c(c2)CCC(=O)N3)cc1 (centres undefined) show?
-29.3

Bench note: what inhibition of aggregation did O=C(CSc1nnc2scc(-c3ccccc3)n12)Nc1nsc(-c2ccccc2)n1 show?
2.8

Bench note: what inhibition of aggregation did CCOC(=O)c1c(N)sc(C(=O)N2CCOCC2)c1C show?
12.2

Bench note: what inhibition of aggregation did CCOC(=O)c1c(C)[nH]c(C(=O)COC(=O)c2ccc(F)c(S(=O)(=O)N3CCOCC3)c2)c1C show?
-173

Bench note: what inhibition of aggregation did CN1CCN(Cc2nc3c(c(=O)n(C)c(=O)n3C)n2Cc2ccccc2Cl)CC1 show?
4.7

---

molecular target: Dual specificity protein phosphatase 6 (Homo sapiens); assay: DUSP6 inhibitors restoring Erk phosphorylation by chemical complementation, primary imaging in DUSP6-transfected HeLa (AID 609); conditions: HeLa MKP-3 transfected, phospho-Erk imaging KS statistic; at 10 µM; active compounds read high; cells stimulated with TPA for 15 min;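 note: phospho-Erk level distribution per well compared with pooled transfected vehicle control wells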
# inhibition annotations
Your answer is read as %, so omit the unit and give the number.

The examples below pair each entry with its known result.
C=CCN=C(C)C1=C(O)CCC1=O : -2.09
CN1C(=O)NC(c2ccccc2)C2=C1CN(Cc1ccccc1)C2=O (stereo unspecified) : -2.59

Bench note: what inhibition did CN(C)CCCn1c(NC(=O)C2CCCCC2)nc2ccccc21 show?
-3.95

---

biological target: Voltage-gated potassium channel subunit beta-2 (Rattus norvegicus); test: KvBeta positive modulators, primary screen, biochemical, NADPH fluorescence (AID 623); settings: Recombinant KvBeta, NADPH fluorescence decrease slope, 10 min; at 10 µM; active compounds read low;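 note: fluorescence intensity change per second fitted from 20 to 320 s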
measuredEndpoint: NADPH fluorescence slope
Output spec: single numeric token, no unit.

CCOc1ccccc1OCC(=O)Nc1nnc(COC)s1 : -3.4e-05
O=C1C=C(N2CCN(C3=CC(=O)CCC3)CC2)CCC1 : -6.9e-05
O=C(COC(=O)C1CC(=O)N(c2ccccc2)C1)c1ccccc1 (stereo unspecified) : -2.9e-05
CN(C)S(=O)(=O)c1ccc(Oc2ccc(S(=O)(=O)N(C)C)cc2)cc1 : 3.1e-05
Cc1c(C#N)sc2nc(-c3ccccc3)nc(N3CCCC3)c12 : -1.1e-05
COc1ccc(-c2oc3ncn(CCN4CCOCC4)c(=N)c3c2-c2ccc(OC)cc2)cc1 : -6.6e-05

# input for lookup
// map CC(=O)c1ccc(NC(=O)C2CCN(S(=O)(=O)c3cccc4cccnc34)CC2)cc1 to recorded NADPH fluorescence slope (system: Voltage-gated potassium channel subunit beta-2 (Rattus norvegicus))
-1.3e-05
